Some molecules, each annotated with its measured Residual activity (%).
# test: Thermal stability: residual activity after incubation at 60° C. for one hour
# Assay type: biochemical
# condition-parameters: crude recombinant enzyme; after incubation at 60° C. for 1 hour
Value and unit, in that order.

molecule: Ketose 3-epimerase mutant 34: amino acid-substituted mutant of SEQ ID NO: 1 (protein, Arthrobacter histidinolovorans) MKIGCHGLVWTGRFDAEGIRYSVQKTKEAGFDLIEFPLMDPFSFDVATAKSALAEHGLTASASLGLSEATDVSSEDPAIVKAGEELLNRALDVLAELGATDFCGVIYSAMKKYMEPATEQGLSNSKAVVGRVVDRAAGLGINVSLEVVNRYETNVLNTGRQALSYLSDVKRPNLGVHLDTYHMNIEESDMFSPVLDTAEALKYVHIGESHRGYLGTGSVDFDNFFKALGRIGYDGPVVFESFSSAVVAPDLSRMLGIWRNLWADNEELGAHANAFIRDKLTAIKTIELH
Residual activity (%): 57.2%

Then this molecule:
[Q] Using the record for Ketose 3-epimerase mutant 16: amino acid-substituted mutant of SEQ ID NO: 1 (protein, Arthrobacter histidinolovorans) MKIGCHGLVWTGRFDAEGIRYSVQKTKEAGFDLIEFPLMDPFSFDVATAKSALAEHGLSVSASLGLSEATDVSSEDPAIVKAGEELLNRALDVLAELGATEFCGVIYSAMKKYMEPATEQGLSNSKAAIGRVVDRAAGLGINVSLEVVNRYETNVLNTGRQALSYLSDVKRPNLGVHLDTYHMNIEESDMFSPVLDTAEALKYVHIGESHRGYLGTGSVDFDNFFKALGRIGYDGPVVFESFSSAVVAPDLSRMLGIWRNLWADNEELGAHANAFIRDKLTAIKTIELH , report its Residual activity (%).
[A] 54.0%
